target.or.test.system: T1, antiplasmin-cleaving enzyme (APCE) (human, UniProt Q12884 24-760, Natural plasma glycoprotein; glycans are not carried by the letters. The active enzyme is known as a homodimer; one chain is given.)
T1 construct: The range 24-760 is derived from the statement that APCE lacks the first 23 residues of FAP; also called α2-antiplasmin cleaving enzyme; APCE/FAP
T1 sequence: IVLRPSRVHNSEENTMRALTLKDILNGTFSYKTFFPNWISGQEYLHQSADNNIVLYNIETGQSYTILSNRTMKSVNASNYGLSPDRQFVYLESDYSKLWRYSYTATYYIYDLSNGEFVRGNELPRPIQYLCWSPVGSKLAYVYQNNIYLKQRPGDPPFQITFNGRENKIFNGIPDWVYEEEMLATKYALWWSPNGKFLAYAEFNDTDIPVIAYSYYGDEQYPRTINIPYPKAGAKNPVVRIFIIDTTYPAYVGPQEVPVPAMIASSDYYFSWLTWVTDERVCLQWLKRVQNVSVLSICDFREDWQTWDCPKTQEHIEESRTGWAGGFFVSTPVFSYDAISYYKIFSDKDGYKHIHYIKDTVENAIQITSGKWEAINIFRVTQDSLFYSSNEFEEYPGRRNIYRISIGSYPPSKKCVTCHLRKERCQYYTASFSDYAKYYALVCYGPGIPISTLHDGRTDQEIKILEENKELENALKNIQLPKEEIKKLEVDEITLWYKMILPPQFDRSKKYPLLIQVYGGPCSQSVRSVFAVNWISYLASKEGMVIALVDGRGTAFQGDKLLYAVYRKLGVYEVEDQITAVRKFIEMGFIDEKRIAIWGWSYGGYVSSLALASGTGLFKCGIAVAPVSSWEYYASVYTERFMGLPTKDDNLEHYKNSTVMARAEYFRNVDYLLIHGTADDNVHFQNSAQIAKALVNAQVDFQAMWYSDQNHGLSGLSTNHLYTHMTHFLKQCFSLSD
experiment.summary: inhibition of APCE activity, AMC fluorogenic substrate, competitive fit
Description: Enzyme assays. […] Fluorescence was monitored with time at excitation and emission wavelengths of 360 and 460 nm using a black-sided, 96-well plate in a BIO-TEK FL600 fluorescence plate reader. For standard curves, dilutions of AMC (7-amino-4-methylcoumarin) were prepared in the same assay buffer and corresponding fluorescence was measured. […]
pKi: −log10 of the molar value. Where no end group is shown, it is not given here. [ ]: non-standard residue; d: D form. Pip = O=C(O)[C@@H]1CCCCN1; AEEA = NCCOCCOCC(=O)O

binder: FG[AEEA]G[Pip]NQEQV-OH (N-terminus assumed; SMILES CC(C)[C@H](NC(=O)[C@H](CCC(N)=O)NC(=O)[C@H](CCC(=O)O)NC(=O)[C@H](CCC(N)=O)NC(=O)[C@H](CC(N)=O)NC(=O)[C@@H]1CCCCN1C(=O)CNC(=O)COCCOCCNC(=O)CNC(=O)[C@@H](N)Cc1ccccc1)C(=O)O) [FG-peg-G-pipecolinyl-NQEQV]
pKi: 4.24
--
binder: FRQLTSG[Pip]NQEQV-OH (N-terminus assumed; SMILES CC(C)C[C@H](NC(=O)[C@H](CCC(N)=O)NC(=O)[C@H](CCCNC(=N)N)NC(=O)[C@@H](N)Cc1ccccc1)C(=O)N[C@H](C(=O)N[C@@H](CO)C(=O)NCC(=O)N1CCCC[C@H]1C(=O)N[C@@H](CC(N)=O)C(=O)N[C@@H](CCC(N)=O)C(=O)N[C@@H](CCC(=O)O)C(=O)N[C@@H](CCC(N)=O)C(=O)N[C@H](C(=O)O)C(C)C)[C@@H](C)O) [FRQLTS-G pipecolinyl-NQEQV]
pKi: 4.85
--
binder: FR[AEEA]G[Pip]NQEQV-OH (N-terminus assumed; SMILES CC(C)[C@H](NC(=O)[C@H](CCC(N)=O)NC(=O)[C@H](CCC(=O)O)NC(=O)[C@H](CCC(N)=O)NC(=O)[C@H](CC(N)=O)NC(=O)[C@@H]1CCCCN1C(=O)CNC(=O)COCCOCCNC(=O)[C@H](CCCNC(=N)N)NC(=O)[C@@H](N)Cc1ccccc1)C(=O)O) [FR-peg-G-pipecolinyl-NQEQV]
pKi: 4.83
--
binder: FR[AEEA]G[Pip]NQGQV-OH (N-terminus assumed; SMILES CC(C)[C@H](NC(=O)[C@H](CCC(N)=O)NC(=O)CNC(=O)[C@H](CCC(N)=O)NC(=O)[C@H](CC(N)=O)NC(=O)[C@@H]1CCCCN1C(=O)CNC(=O)COCCOCCNC(=O)[C@H](CCCNC(=N)N)NC(=O)[C@@H](N)Cc1ccccc1)C(=O)O) [FR-peg-G-pipecolinyl-NQGQV]
pKi: 4.84
